Quick reference for pIC50 among some compounds
Target: C3a anaphylatoxin chemotactic receptor (Homo sapiens, UniProt Q16581)
Sequence (Q16581 whole entry): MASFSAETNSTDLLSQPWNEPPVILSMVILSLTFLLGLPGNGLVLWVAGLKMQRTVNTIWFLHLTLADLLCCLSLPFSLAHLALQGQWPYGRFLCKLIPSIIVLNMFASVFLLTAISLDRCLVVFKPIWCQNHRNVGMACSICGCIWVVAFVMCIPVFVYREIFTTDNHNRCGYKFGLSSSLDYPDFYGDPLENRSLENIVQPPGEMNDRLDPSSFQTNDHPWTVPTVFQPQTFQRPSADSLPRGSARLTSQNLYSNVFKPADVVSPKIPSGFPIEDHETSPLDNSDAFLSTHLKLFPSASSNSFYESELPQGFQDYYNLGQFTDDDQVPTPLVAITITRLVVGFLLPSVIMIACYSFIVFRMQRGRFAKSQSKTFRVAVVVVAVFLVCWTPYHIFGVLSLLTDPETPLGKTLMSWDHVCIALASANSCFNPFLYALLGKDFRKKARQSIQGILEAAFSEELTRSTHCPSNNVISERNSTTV
Experiment: Antagonist activity at C3a receptor in human MDM cells assessed as inhibition of C3a-induced intracellular calcium release preincubated for 30 mins followed by C3a addition and measured at 1 sec interval for => 200 secs by Fluo-3 AM dye-based FLIPR assay
Type: functional, cell-based
Conditions: read-out: IC50
pIC50: −log10 of the molar value.
experimental-readout: pIC50

compound: Cc1cc(C(c2ccc(Cl)cc2)c2ccc(Cl)cc2)sc1C(=O)N[C@@H](CCCNC(=N)N)C(=O)O
relational-operator: =
endpoint-result: 8.00
//
compound: N=C(N)NCCC[C@H](NC(=O)c1cnc(C(c2ccccc2)c2ccccc2)s1)C(=O)O
relational-operator: =
endpoint-result: 6.22
//
compound: N=C(N)NCCC[C@H](NC(=O)c1ccc(C(c2ccccc2)c2ccc3ccccc3c2)s1)C(=O)O (mixture of isomers)
relational-operator: =
endpoint-result: 7.05
//
compound: N=C(N)NCCC[C@H](NC(=O)c1sc(C(c2ccccc2)c2ccccc2)c2c1CCCC2)C(=O)O
relational-operator: =
endpoint-result: 5.62
//
compound: N=C(N)NCCC[C@H](NC(=O)c1sc(C(c2ccccc2)c2ccccc2)cc1Br)C(=O)O
relational-operator: =
endpoint-result: 6.29
//
compound: Cc1cc(C(c2ccc(F)cc2)c2ccc(F)cc2)sc1C(=O)N[C@@H](CCCNC(=N)N)C(=O)O
relational-operator: =
endpoint-result: 7.46
//
compound: N=C(N)NCCC[C@H](NC(=O)c1cc(-c2ccccc2)c(C(c2ccccc2)c2ccccc2)s1)C(=O)O
relational-operator: =
endpoint-result: 6.85
//
compound: COc1ccc(C(c2ccc(OC)cc2)c2cc(C)c(C(=O)N[C@@H](CCCNC(=N)N)C(=O)O)s2)cc1
relational-operator: =
endpoint-result: 5.70
//
compound: CC(c1ccccc1)c1ccc(C(=O)N[C@@H](CCCNC(=N)N)C(=O)O)s1 (mixture of isomers)
relational-operator: <
endpoint-result: 5.00
//
compound: Cc1cc(C(c2ccccc2)c2ccccc2)sc1C(=O)N[C@@H](CCCNC(=N)N)C(=O)O
relational-operator: =
endpoint-result: 8.15
//
compound: N=C(N)NCCC[C@H](NC(=O)c1ccc(C2CCCCCCCCCCC2)s1)C(=O)O
relational-operator: <
endpoint-result: 4.00
//
compound: N=C(N)NCCC[C@H](NC(=O)c1sc(C(c2ccccc2)c2ccccc2)cc1-c1ccccc1)C(=O)O
relational-operator: <
endpoint-result: 4.00
//
compound: COc1ccc(C(c2ccc(OC)cc2)c2ccc(C(=O)N[C@@H](CCCNC(=N)N)C(=O)O)s2)cc1
relational-operator: =
endpoint-result: 5.21
//
compound: N=C(N)NCCC[C@H](NC(=O)c1ccc(C(c2ccc(Cl)cc2)c2ccc(Cl)cc2)s1)C(=O)O
relational-operator: =
endpoint-result: 7.52
//
compound: CC(C)=C(c1ccccc1)c1ccc(C(=O)N[C@@H](CCCNC(=N)N)C(=O)O)s1
relational-operator: =
endpoint-result: 5.36
//
compound: N=C(N)NCCC[C@H](NC(=O)c1ccc(C(c2cccc(Cl)c2)c2cccc(Cl)c2)s1)C(=O)O
relational-operator: =
endpoint-result: 8.22
//
compound: N=C(N)NCCC[C@H](NC(=O)c1ccc(C(c2ccccc2)C2CCCCC2)s1)C(=O)O (mixture of isomers)
relational-operator: =
endpoint-result: 8.40
//
compound: N=C(N)NCCC[C@H](NC(=O)c1ccc(Cc2ccccc2)s1)C(=O)O
relational-operator: <
endpoint-result: 5.00
//
compound: Cc1cc(C(c2ccc(O)cc2)c2ccc(O)cc2)sc1C(=O)N[C@@H](CCCNC(=N)N)C(=O)O
relational-operator: =
endpoint-result: 6.10
